System: 233499-124-R-J3-PDC spheroids with HUVEC/MSC, viability;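 note: spheroids exposed to agents for seven days before readout; percent viability relative to DMSO vehicle control taken as 100%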
Assay: Anticancer human tumor 233499-124-R-J3-PDC patient-derived colon adenocarcinoma cell line growth inhibition [PI3K]; active = viability on the fitted dose curve at most 10% of control; inactive = the rest
Conditions: compound 10 µM
Returns: one label drawn from yes (1) = active, no (0) = inactive

Task: How did this test come out for CC(Nc1ncnc2nc[nH]c12)c1cc2cccc(Cl)c2c(=O)n1-c1ccccc1 (stereo not drawn) ?
Output: no (0)

Task: How did this test come out for Cn1nccc1Nc1nccc(-c2ccn(C(CO)c3ccc(Cl)c(F)c3)c(=O)c2)n1 (stereo not drawn) ?
Output: no (0)

Task: How did this test come out for CCCS(=O)(=O)Nc1ccc(F)c(C(=O)c2c[nH]c3ncc(-c4ccc(Cl)cc4)cc23)c1F ?
Output: yes (1)

src = PubChem BioAssay AID1963984
